Hi there, I'd appreciate the recorded viability at 1 µM for every entry that follows.
Tested on: iCell cardiomyocytes (human iPSC-derived cardiomyocytes)
Test Name: High-content imaging of cytotoxicity and mitochondrial integrity in iPSC-CMs
Assay type: cell-based
Measurement Conditions: Homo sapiens, Cardiomyocyte, 24 h, 1.00 µM; 0.00 µM = 100.00; read-out: cm.tc.24hrs
Where a name gives a salt, the structure may show the parent alone.
One number for each entry, in %.

Compound | Assay System | Unit Descriptor | Recorded Result
Oc1cc(Cl)cc(-c2cccc(Cl)c2)c1 [5-OH PCB 11] | iCell cardiomyocytes (human iPSC-derived cardiomyocytes) | % | 99.8

Dear colleague, could you send me viability at 1 µM for each of the items below? Thanks.
1. Oc1ccc(-c2cccc(Cl)c2)cc1Cl [4-OH PCB11]
2. O=S(=O)(O)Oc1ccc(-c2cccc(Cl)c2)cc1Cl [4-yl PCB 11 sulfate]
3. O=S(=O)(O)Oc1cc(Cl)ccc1-c1ccccc1 [2-yl PCB 3 sulfate]
4. O=C1C=CC(=O)C(c2ccc(Cl)cc2)=C1 [4-Cl-BQ, 2-(4-Chlorophenyl)benzo-2,5-quinone]
5. Oc1ccc(O)c(-c2ccc(Cl)cc2)c1 [2',5'-DiOH PCB3]

Output:
98.7
102
101
105
97.9

###

System: iCell cardiomyocytes (human iPSC-derived cardiomyocytes)
Test Name: High-content imaging of cytotoxicity and mitochondrial integrity in iPSC-CMs
Type: cell-based
Measurement Conditions: Homo sapiens, Cardiomyocyte, 1.5 h, 100.00 µM; 0.00 µM = 100.00; read-out: cm.tc.90min
Counter-ions that a name gives are not always drawn.
Readout Kind: viability at 100 µM

Molecule | viability at 100 µM
O=S(=O)(O)Oc1cc(Cl)ccc1-c1ccccc1 [2-yl PCB 3 sulfate] | 105%
O=S(=O)(O)Oc1cccc(-c2ccc(Cl)cc2)c1 [3'-yl PCB 3 sulfate] | 99.3%
O=S(=O)(O)Oc1ccc(-c2ccc(Cl)cc2)cc1 [4'-yl PCB 3 sulfate] | 96.7%
Oc1ccc(O)c(-c2ccc(Cl)cc2)c1 | 0%
Clc1cccc(-c2cccc(Cl)c2)c1 | 1.06%
O=C1C=CC(=O)C(c2ccc(Cl)cc2)=C1 | 100%
Clc1ccc(-c2ccccc2)cc1 | 40.4%
Oc1cccc(-c2ccc(Cl)cc2)c1 | 0%

Okay, next one:
Task: # get_value(readout= viability at 100 µM, system= iCell cardiomyocytes (human iPSC-derived cardiomyocytes)) for Oc1ccc(-c2ccc(Cl)cc2)cc1
Output: 0.0231%

###

Test system: iCell cardiomyocytes (human iPSC-derived cardiomyocytes)
Test Name: High-content imaging of cytotoxicity and mitochondrial integrity in iPSC-CMs
Assay type: cell-based
Measurement Conditions: Homo sapiens, Cardiomyocyte, 1.5 h, 10.00 µM; 0.00 µM = 100.00; read-out: cm.tc.90min
Structures can show the parent of a compound that is named as a salt.
Readout Kind: viability at 10 µM (%)
Numbers only, in %.

Dear colleague, could you send me viability at 10 µM for each of the items below? Thanks.
1. O=C1C=CC(=O)C(c2ccc(Cl)cc2)=C1 [4-Cl-BQ, 2-(4-Chlorophenyl)benzo-2,5-quinone]
2. O=S(=O)(O)Oc1cc(Cl)ccc1-c1ccccc1 [2-yl PCB 3 sulfate]
3. Oc1ccc(-c2cccc(Cl)c2)cc1Cl [4-OH PCB11]
4. O=S(=O)(O)Oc1cccc(-c2ccc(Cl)cc2)c1 [3'-yl PCB 3 sulfate]
5. Clc1ccc(-c2ccccc2)cc1 [PCB3]
6. Oc1cc(Cl)cc(-c2cccc(Cl)c2)c1 [5-OH PCB 11]

Output:
1: 103; 2: 101; 3: 106; 4: 95.3; 5: 99.5; 6: 98

###

Hi there, I'd appreciate the recorded activity at 0.1 µM for every entry that follows.
Tested on: HUVECs
Test Name: High-content imaging cytotoxicity in HUVECs, 24 h
Assay type: cell-based, human
Measurement Conditions: Homo sapiens, HUVEC, 24 h, HUVECs, 24 hr, 0.10 µM; 0.00 µM = 100.00; read-out: huvec.mito.24hr
Where a name gives a salt, the structure may show the parent alone.
Give bare numbers, in %.

Some entries whose results are on file:
Compound | Unit Descriptor | activity at 0.1 µM
O=C1C=CC(=O)C(c2ccc(Cl)cc2)=C1 | % | 101
O=S(=O)(O)Oc1ccc(-c2ccc(Cl)cc2)cc1 [4'-yl PCB 3 sulfate] | % | 89.7
O=S(=O)(O)Oc1ccc(-c2cccc(Cl)c2)cc1Cl [4-yl PCB 11 sulfate] | % | 85.9

Okay, next one:
Task: Given the compound Oc1ccc(O)c(-c2ccc(Cl)cc2)c1 , what is its reported activity at 0.1 µM?
Output: 103

###

Test system: iCell endothelial cells (human iPSC-derived ECs)
Test Name: High-content imaging cytotoxicity in iCell endothelial cells, 24 h
Type: cell-based
Measurement Conditions: Homo sapiens, Endothelial cell, iPSC-EC, 24 hr, 0.01 µM, 0.00 µM control = 100.00, read-out: endo.tc.24hrs
Where a name gives a salt, the structure may show the parent alone.
Readout Kind: viability at 0.01 µM (%)
One number for each entry, in %.

Dear colleague, could you send me viability at 0.01 µM for each of the items below? Thanks.
1. Clc1cccc(-c2cccc(Cl)c2)c1
2. Clc1ccc(Cl)c(-c2cc(Cl)ccc2Cl)c1
3. Oc1ccc(-c2ccc(Cl)cc2)cc1
4. COc1ccc(-c2cccc(Cl)c2)cc1Cl
5. Clc1ccc(-c2ccccc2)cc1
6. O=S(=O)(O)Oc1ccc(-c2cccc(Cl)c2)cc1Cl [4-yl PCB 11 sulfate]
7. O=S(=O)(O)Oc1cc(Cl)c(-c2cc(Cl)ccc2Cl)cc1Cl [4-yl PCB 52 sulfate]
8. O=S(=O)(O)Oc1cc(-c2ccccc2)ccc1Cl [3-yl PCB 3 sulfate]

Output:
1: 99.3; 2: 100; 3: 96.3; 4: 88.3; 5: 101; 6: 96.1; 7: 99.1; 8: 93.7

###

Hi there, I'd appreciate the recorded activity at 0.01 µM for every entry that follows.
Test system: HUVECs
Test Name: Tube formation (tubulogenesis) assay in HUVECs, 18 h
Assay type: cell-based, human
Measurement Conditions: Homo sapiens, HUVEC, 18 h, HUVECs, 0.01 µM, 0.00 µM = 100.00, read-out: huvec.mtl.18hr
Protocol: Similar to the cultivation of iCell®-endothelial cells, HUVEC maintenance and experimentation are detailed elsewhere ([Iwata et al. 2017]). […] Tube formation assays were performed on Geltrex™ LDEV-free reduced growth factor basement membrane using both iCell®-endothelial cells and HUVECs in 384-well format exactly as detailed in Iwata et al. ([2017]). […] Images were analyzed with the angiogenesis module software within MetaXpress™ (Molecular Devices). […]
Where a name gives a salt, the structure may show the parent alone.
Answers are plain numbers, in %.

Molecule | activity at 0.01 µM [%]
Clc1cccc(-c2cccc(Cl)c2)c1 [PCB11] | 107
O=S(=O)(O)Oc1ccc(-c2ccc(Cl)cc2)cc1 [4'-yl PCB 3 sulfate] | 107
Oc1cc(Cl)cc(-c2cccc(Cl)c2)c1 [5-OH PCB 11] | 117

Okay, next one:
Task: Given the molecule O=S(=O)(O)Oc1cc(-c2ccccc2)ccc1Cl [3-yl PCB 3 sulfate] , what is its reported activity at 0.01 µM?
Output: 95

###

Hi there, I'd appreciate the recorded activity at 0.1 µM for every entry that follows.
Test system: iCell cardiomyocytes (human iPSC-derived cardiomyocytes)
Test Name: Intracellular Ca2+ flux / beating parameters in iCell cardiomyocytes (FLIPR tetra), 90 min or 24 h
Type: cell-based
Measurement Conditions: Homo sapiens, Cardiomyocyte, 1.5 h, 0.10 µM; 0.00 µM = 100.00; read-out: cm.spacing.cv.90min
Structures can show the parent of a compound that is named as a salt.
One number for each entry, in %.

Some entries whose results are on file:
Molecule | Assay System | Recorded Result
COc1ccc(-c2cccc(Cl)c2)cc1Cl [4-OMe PCB11] | iCell cardiomyocytes (human iPSC-derived cardiomyocytes) | 106
O=S(=O)(O)Oc1ccc(-c2ccc(Cl)cc2)cc1 [4'-yl PCB 3 sulfate] | iCell cardiomyocytes (human iPSC-derived cardiomyocytes) | 107
Oc1ccc(-c2cccc(Cl)c2)cc1Cl [4-OH PCB11] | iCell cardiomyocytes (human iPSC-derived cardiomyocytes) | 90.9
Oc1ccc(-c2ccc(Cl)cc2)cc1 [4'-OH PCB3] | iCell cardiomyocytes (human iPSC-derived cardiomyocytes) | 108
Oc1cccc(-c2ccc(Cl)cc2)c1 [3'-OH PCB3] | iCell cardiomyocytes (human iPSC-derived cardiomyocytes) | 106

Okay, next one:
Task: Given the molecule O=S(=O)(O)Oc1cccc(-c2ccc(Cl)cc2)c1 [3'-yl PCB 3 sulfate] , what is its reported activity at 0.1 µM?
Output: 110

###

System: iPSC-CMs, iPSC-ECs and HUVECs phenotypes
Test Name: ToxPi 2.0 integration of POD values and physicochemical descriptors
Parameters: species or system human
Measurement Conditions: ToxPi-scaled (0-1) score; iPSC cardiomyocytes, 24 h
Readout Kind: cm.amp.avg.24hrs

Compound | Readout Kind | Recorded Result
Clc1ccc(Cl)c(-c2c(Cl)ccc(Cl)c2Cl)c1Cl [(-)-PCB 136, 2,2′,3,3′,6,6′-hexachlorobiphenyl] | cm.amp.avg.24hrs | 0.7236
Oc1ccccc1-c1ccc(Cl)cc1 | cm.amp.avg.24hrs | 0.2407
Clc1ccc(Cl)c(-c2c(Cl)ccc(Cl)c2Cl)c1 | cm.amp.avg.24hrs | 0

Task: Given the compound Clc1cc(Cl)c(-c2cc(Cl)c(Cl)cc2Cl)cc1Cl , what is its reported cm.amp.avg.24hrs?
Output: 0
